biological target: human FPR2 (Homo sapiens (Human)); assay: FPR2 cyclic adenosine monophosphate (cAMP) assay; conditions: CHO cells overexpressing human FPR2; forskolin 5 µM; inhibition of cAMP production; read-out: hFPR2 cAMP2 EC50
Sequence (P25090 whole entry): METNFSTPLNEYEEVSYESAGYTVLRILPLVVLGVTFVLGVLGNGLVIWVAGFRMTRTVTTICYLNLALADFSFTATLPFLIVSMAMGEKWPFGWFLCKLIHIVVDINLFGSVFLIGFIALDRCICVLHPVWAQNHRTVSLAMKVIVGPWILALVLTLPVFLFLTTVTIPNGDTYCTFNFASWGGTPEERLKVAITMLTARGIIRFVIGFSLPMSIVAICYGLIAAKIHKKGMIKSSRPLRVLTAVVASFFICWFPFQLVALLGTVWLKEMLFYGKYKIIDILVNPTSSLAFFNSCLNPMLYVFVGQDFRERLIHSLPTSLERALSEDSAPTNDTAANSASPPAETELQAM
pEC50: −log10 of the molar value.

molecule	pEC50
COc1cc(F)c([C@@H]2CN(c3c(C)ccn(CCC(F)(F)F)c3=O)C(=O)[C@H]2NC(=O)c2ccc(Cl)cc2)c(F)c1 [Example 430]	8.48
COc1cc(F)c([C@@H]2CN(c3c(C)ccn(C4CCNC4)c3=O)C(=O)[C@H]2NC(=O)c2ccc(OC(F)(F)F)cc2)c(F)c1 (stereo partly shown) [Example 613]	7.93
COc1cc(F)c([C@@H]2CN(c3c(C)ccn(C(F)(F)CO)c3=O)C(=O)[C@H]2NC(=O)c2ccc(OC(F)F)cc2)c(F)c1	8.36
COc1cc(F)c([C@@H]2CN(c3nc(N4C(=O)CC[C@H]4CO)ccc3F)C(=O)[C@H]2NC(=O)c2ccc(OC(F)F)cc2)c(F)c1	8.12
COc1cc(N2C[C@@H](C)N(C)[C@@H](C)C2)nc(N2C[C@@H](c3c(F)cc(OC)cc3F)[C@H](NC(=O)c3ccc(Cl)cc3)C2=O)c1	8.33
COc1cc(F)c([C@@H]2CN(c3c(C)ccn(CC(F)F)c3=O)C(=O)[C@H]2NC(=O)c2ccc(OC(F)(F)F)cc2)c(F)c1	8.64
COc1cc(F)c([C@@H]2CN(c3c(C)ccn(CC4CCO4)c3=O)C(=O)[C@H]2NC(=O)c2ccc(Cl)cc2)c(F)c1 (stereo partly shown) [Example 614]	8.22
COc1cc(F)c([C@@H]2CN(c3c(C)ccn(CC(OC)C(F)(F)F)c3=O)C(=O)[C@H]2NC(=O)c2ccc(OC(F)(F)F)cc2)c(F)c1 (stereo partly shown)	8.05
COc1ccc([C@@H]2CN(c3ccnn(CC(F)F)c3=O)C(=O)[C@H]2NC(=O)c2ccc(OC(F)(F)F)cc2)c(F)c1	8.14
COc1cc(F)c([C@@H]2CN(c3c(C)ccn(CC4CCO4)c3=O)C(=O)[C@H]2NC(=O)c2ccc(OC(F)F)cc2)c(F)c1 (stereo partly shown) [Example 616]	8.03
CCn1c2c(cc(N3C[C@@H](c4c(F)cc(OC)cc4F)[C@H](NC(=O)c4ccc(OC(F)F)cc4)C3=O)c1=O)CCCC2	8.85
COCCN1CCC(N2C[C@@H](c3c(F)cc(OC)cc3F)[C@H](NC(=O)c3ccc(OC(F)(F)F)cc3)C2=O)C1=O (stereo partly shown)	8.38
COc1cc(F)c([C@@H]2CN(c3cnn4c3OCCC4)C(=O)[C@H]2NC(=O)c2ccc(OC(F)(F)F)cc2)c(F)c1	8.21
CCn1ccc(C)c(N2C[C@@H](c3ccc(OC)cc3)[C@H](NC(=O)c3ccc(OC(F)(F)F)cc3)C2=O)c1=O	8.36
COc1cc(F)c([C@@H]2CN(c3nc(N4C[C@@H](C)N(C)[C@@H](C)C4)ccc3C3CC3)C(=O)[C@H]2NC(=O)c2ccc(OC(F)F)cc2)c(F)c1	6.96
COc1cc(F)c([C@@H]2CN(c3ncccc3C(F)(F)F)C(=O)[C@H]2NC(=O)C2CCc3cc(OC)ccc3C2)c(F)c1 (stereo partly shown)	6.24
COc1cc(F)c([C@H]2[C@H](NC(=O)c3ccc(OC(F)F)cc3)C(=O)N(c3cccc(N4CCOCC4)n3)[C@H]2C)c(F)c1	7.82
COc1cc(F)c([C@@H]2CN(c3c(C)ccn(CC(C)O)c3=O)C(=O)[C@H]2NC(=O)c2ccc(OC(F)F)cc2)c(F)c1 (stereo partly shown) [Example 176]	8.34
COc1cc(F)c([C@@H]2CN(c3cn(C)nc3OC)C(=O)[C@H]2NC(=O)c2ccc(Cl)cc2)c(F)c1	8.00
COc1cc(F)c([C@@H]2CN(c3nc(N4CC5(COC5)C4)ccc3OC)C(=O)[C@H]2NC(=O)c2ccc(OC(F)F)cc2)c(F)c1	8.21
COc1cc(F)c([C@@H]2CN(c3cccn(CC(F)F)c3=O)C(=O)[C@H]2NC(=O)c2ccc(OC(F)(F)F)cc2)c(F)c1	8.42
COc1cc(F)c([C@@H]2CN(c3cccnc3OC3CCOC3)C(=O)[C@H]2NC(=O)c2ccc(OC(F)F)cc2)c(F)c1 (stereo partly shown)	8.40
COc1cc(F)c([C@@H]2CN(c3ccc(CO)[nH]c3=O)C(=O)[C@H]2NC(=O)c2ccc(OC(F)F)cc2)c(F)c1	8.46
COc1cc(F)c([C@@H]2CN(c3nc(N4C(=O)C5CCCC54)ccc3F)C(=O)[C@H]2NC(=O)c2ccc(OC(F)F)cc2)c(F)c1 (stereo partly shown) [Example 119]	8.51
COc1ccc([C@@H]2CN(c3c(C)ccn(CCO)c3=O)C(=O)[C@H]2NC(=O)c2ccc(OC(F)F)cc2)c(F)c1	8.92
